- System: SARS-CoV-2 S protein (S2 domain)
- Format: cell-based
- Conditions used: Western blot with S2-specific antibodies
Test readout: S2 domain levels in the medium of SC-VLP-producing cells

{"Structure smiles string": "CC(=O)OC[C@H]1O[C@@H](SCc2cn(C[C@H]3O[C@@H](n4ccc(=O)[nH]c4=O)[C@H](O[Si](C)(C)C(C)(C)C)[C@@H]3O[Si](C)(C)C(C)(C)C)nn2)[C@H](OC(C)=O)[C@@H](OC(C)=O)[C@@H]1OC(C)=O", "Tested target": "SARS-CoV-2 S protein (S2 domain)", "Result": "minor alterations"}
{"Structure smiles string": "CC(=O)OC[C@H]1O[C@@H](SCn2cc(COC[C@H]3O[C@@H](n4ccc(=O)[nH]c4=O)[C@H](O[Si](C)(C)C(C)(C)C)[C@@H]3O[Si](C)(C)C(C)(C)C)nn2)[C@H](OC(C)=O)[C@@H](OC(C)=O)[C@@H]1OC(C)=O", "Tested target": "SARS-CoV-2 S protein (S2 domain)", "Result": "minor alterations"}
{"Structure smiles string": "CC(=O)OC[C@H]1O[C@@H](OCc2cn(C[C@H]3O[C@@H](n4ccc(=O)[nH]c4=O)[C@H](O[Si](C)(C)C(C)(C)C)[C@@H]3O[Si](C)(C)C(C)(C)C)nn2)[C@H](OC(C)=O)[C@@H](OC(C)=O)[C@H]1OC(C)=O", "Tested target": "SARS-CoV-2 S protein (S2 domain)", "Result": "minor alterations"}
